Test system: KM12 colon
Test: NCI tumour cell line growth inhibition, 48 h
measurement_type: TGI

Worked cases, TGI given:
>>> test_value("O=C1C(Cl)=C(Nc2ccccc2O)C(=O)N1Cc1ccccc1")
"36.2 µM"
>>> test_value("CCOC(=O)Cn1c(=O)n(C)c(=O)c2c1ncn2Cc1ccccc1")
"> 100 µM"
>>> test_value("NC(=S)N/N=C/c1cc(-c2cccc(N)c2)ccn1")
"> 41.2 µM"
>>> test_value("c1ccc(-c2cnc(-c3ccc(-c4ncc(-c5ccccc5)o4)cc3)o2)cc1")
"> 100 µM"
>>> test_value("Cc1ccc(S(=O)(=O)NC(=O)NC2=NC(C)(C)N(c3ccc(Cl)c(Cl)c3)C(N)=N2)cc1")
"> 100 µM"

Return TGI (reported value) for this compound: CC1=C(C(=O)Nc2ccccc2)C(c2ccc(C3C(C(=O)Nc4ccccc4)=C(C)NC(C)=C3C(=O)Nc3ccccc3)cc2)C(C(=O)Nc2ccccc2)=C(C)N1 5.01 µM

Return TGI (reported value) for this compound: O=C(O)C12CC3(C(=O)O)CC(C(=O)O)(CC(C(=O)O)(C1)C3=O)C2=O > 100 µM

Return TGI (reported value) for this compound: O=C1C(=O)N(c2cc(Cl)ccc2Cl)C(=O)C(=O)C1c1nc2ccccc2o1 > 31.6 µM

Return TGI (reported value) for this compound: CC(O)CC(O)(C(F)(F)F)C(F)(F)F (stereo unspecified) > 10 µM

Return TGI (reported value) for this compound: CCOC(CN(C)C(=S)Nc1cccc2ccccc12)OCC > 10 µM

Return TGI (reported value) for this compound: O=c1[nH]c(=O)n([C@H]2CCCO2)cc1F > 5000 µM

---

Test system: U251 CNS
Give one outcome, nothing more. List: YES (active), NO (inactive)

Consider the following illustrative entries.
>>> label("COC(=O)c1cc(/C=C/c2ccc(S(N)(=O)=O)cc2)ccc1O")
"NO"
>>> label("C/C(=N\\NC(=S)N1CC2CCC(CC2)C1)c1ccccn1")
"YES"
>>> label("O=C(NO)c1ccc(CN(c2cnccn2)c2cnccn2)cc1")
"NO"
>>> label("COc1ccc(Cc2cnc(NC(=O)c3ccc4c(c3)OCCO4)s2)cc1")
"YES"
>>> label("O=C(NCc1ccc(S(=O)(=O)c2cc(F)cc(F)c2)cc1)c1ccc2nccn2c1")
"NO"

# input for lookup
Tell me the assay call for O=C1C(Cl)=C(Nc2ccccc2O)C(=O)N1Cc1ccccc1 please. NO

---

Tested on: MDA-MB-435
Assay: NCI tumour cell line growth inhibition, 48 h
measurement_type: TGI

Worked cases, TGI given:
>>> test_value("COc1ccc(-c2csc(NC(=O)CSc3nc(C)c(-c4ccccc4)n3Nc3ccccc3)n2)cc1")
"> 100 µM"
>>> test_value("Cc1cc(C)n(-c2nnc3n2N=C(c2ccc(-c4ccccc4)cc2)CS3)n1")
"4.46 µM"

Could you now look at the following compound, please?
Return TGI (reported value) for this compound: CCOC(=O)C1CN(C2CC2)CCC1=O (stereo not given) > 100 µM

---

Form field: TGI (one value per entry).
System: DMS 114 small cell lung
Assay: NCI tumour cell line growth inhibition, 48 h
Your answer is read as µM, so omit the unit and give the number.

Worked cases, TGI given:
>>> test_value("CC(C)(C)OC(=O)N1N=NC2C1C1CC(OCc3ccccc3)(OCc3ccccc3)C2O1 (stereo unspecified)")
40.6
>>> test_value("COC1=C(Br)C(=O)c2nc(C)ccc2C1=O")
31.6

Could you now look at the following compound, please?
Return TGI (reported value) for this compound: O=[N+]([O-])c1ccc(C2=Nc3ccccc3SC(c3ccccc3)C2)cc1 (stereo unspecified) 32.8
